system: OVCAR-3 ovarian; assay: NCI-60 one-dose screen, 48 h; conditions: 10 µM unless noted
Compounds without any hit were thinned out: in the full panel of roughly 83,000, 20% have a hit. The source made the active and inactive calls. The calls were made as follows: active = growth percent below 10; inactive = the rest.
Classes used: active, inactive

>>> df
                                    molecule  assigned_class
 0  C=C1C(=O)O[C@H]2[C@H]1CC/C(COC(=O)/C=C\C(=O)NCc1ccc(Cn3c(=O)sn(CCCCC)c3=O)cc1)=C\CC[C@@]1(C)O[C@@H]21        inactive
 1   Nn1c(=O)c(=O)[nH]c2c(cnn2-c2ccccc2)c1=O        inactive
 2  C/C(Cc1ccc(Cl)cc1)=C(\c1ccc(OCCCN(C)C)cc1)c1ccc(OC(=O)Cc2ccccc2)cc1        inactive
 3  N#CSc1c[nH]c2cccc(/C=C/C(=O)/C=C(O)/C=C/c3cccc4[nH]cc(SC#N)c34)c12          active
 4  COC(=O)c1c2c(c(C)[n+]([O-])c1C)C(=O)C(NCc1cccc(Cl)c1)=CC2=O          active
 5  COC(=O)N1CC(Oc2ccccn2)C2CC1c1ccccc1O2 (stereo not drawn)        inactive
 6  Nc1nc(N)c2c(n1)NC(c1ccc(Cl)cc1)C1CCc3ccccc3C1=N2 (stereo not drawn)        inactive
 7  CC1(C)CC2=C3C=C[C@@H]4[C@@]5(C)CCC(=O)C(C)(C)[C@@H]5CC[C@@]4(C)[C@]3(C)CC[C@@]2(C(=O)O)C[C@H]1O        inactive
 8  C=CCOC(=O)C1=C(C)N(CC)C(=O)NC1c1c(Cl)n(C)c2ccccc12 (stereo not drawn)        inactive
 9  CC(=O)OC(c1ccccc1)C1CCOC1=O (stereo not drawn)        inactive
10  Cc1ccc2c(=O)cc(C(=O)Nc3sc4c(c3C(=O)NCc3cccnc3)CCCC4)oc2c1C        inactive
11  C#CCO[C@H]1CC(CC#C)(CC#C)C(=O)[C@@H]2[C@H]1[C@H]1C[C@@H]3[C@@]4(C)CCC[C@@](C)(C(=O)OC)[C@@H]4CC[C@@]23C=C1C(C)C        inactive
12  CCSc1oc(C)nc1[P+](c1ccccc1)(c1ccccc1)c1ccccc1        inactive
13  CO[C@H]1CC(=O)n2c3ccccc3c3c4c(c5c6ccccc6n1c5c32)C(=O)NC4=O        inactive
14  C#CCNC(=O)[C@]1(C)CCC[C@@]2(C)[C@H]1CC=C1C=C(C(C)C)CC[C@@H]12        inactive
15  COc1ccc2c(c1)c(/C(O)=C1\COC(=O)C1=O)cn2Cc1ccc(F)cc1        inactive
16  Cc1ccc(S(=O)(=O)OCCCOS(=O)(=O)c2ccc(C)cc2)cc1        inactive
17  C=C(C)[C@@H]1CCC[C@]2(C(=O)O)CC[C@]3(C)[C@@H](CC[C@@H]4[C@@]5(C)C/C(=C/c6ccncc6)C(=O)C(C)(C)[C@@H]5CC[C@]43C)[C@@H]12        inactive

These measurements were taken from PubChem BioAssay (NCI).
